These data points were gathered from PubChem BioAssay (EPA / NIEHS).

- Read-out: CYP2C8 (gene 1558)
- ASSAY: LTEA_HepaRG_CYP2C8: Life Technologies and Expression Analysis (LTEA) Assay for CYP2C8 using HepaRG (AID 2283483)
- CONDITION DESCRIPTION: mRNA level, 48 h; actives raise or lower the signal
The source made the active and inactive calls. The calls were made as follows: active = hit-call score of the fitted dose curve at least 0.9, where 1 is the maximum; inactive = score below 0.9.
Choose one outcome from this list and give only that: active, inactive

Worked examples follow.
| MOLECULE | ASSIGNED CLASS |
| --- | --- |
| CN(C)C(=O)Nc1cccc(C(F)(F)F)c1 | active |
| COP(=O)(NC(C)=O)SC (configuration not stated) | inactive |
| CCC(=NOC/C=C/Cl)C1=C(O)CC(C2CCOCC2)CC1=O (configuration not stated) | inactive |
| CCOP(=O)(NC(C)C)Oc1ccc(SC)c(C)c1 (configuration not stated) | inactive |

Outcome? CCCSP(=O)(OCC)Oc1ccc(Br)cc1Cl (configuration not stated)
inactive

What did this assay record as the result for O=[N+]([O-])c1cc(C(F)(F)F)c(Cl)c([N+](=O)[O-])c1Nc1ncc(C(F)(F)F)cc1Cl ?
active

Status in this test for N#CSCSC#N ?
active

Please state the recorded outcome for this molecule: COc1ccc(C(=CC(=O)N2CCOCC2)c2ccc(Cl)cc2)cc1OC
active

State the result this test recorded for CCc1cnc(C2=NC(C)(C(C)C)C(=O)N2)c(C(=O)O)c1 (configuration not stated) .
inactive

Please share the test call associated with Cc1nn(-c2cc(NS(C)(=O)=O)c(Cl)cc2Cl)c(=O)n1C(F)F .
inactive

# outcome recorded in this test, key = CCOP(=S)(OCC)Oc1cc(C)nc(C(C)C)n1
inactive

Could you please tell me the result logged for CCNc1nc(Cl)nc(NC(C)(C)C#N)n1 in this assay?
inactive
